test system: ULK1; details: concentration: 1 μM, replicates: in singlicate; n = 1;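 note: KINOMEscan kinase panel screen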
endpoint-name: %Inh (%)

{"columns": ["compound", "endpoint-name", "result"],
 "data": [
  ["COc1nccc(-c2c(-c3ccc(F)cc3)ncn2CCCN2CCOCC2)n1", "%Inh", 0],
  ["COc1ccc(Nc2nccc(N3CCC(NC(=O)C(C)c4ccc(Cl)cc4)C3)n2)cc1 (stereo not drawn)", "%Inh", 9],
  ["O=C(Nc1n[nH]c2nc(-c3ccco3)c(Br)cc12)C1CCN(Cc2ccccc2)C1.O=C(O)[C@H](O)[C@@H](O)C(=O)O (stereo not drawn)", "%Inh", 5],
  ["Cn1cncc1-c1cc2c(Nc3ccc(OCc4ccccc4)cc3)ncnc2cn1", "%Inh", 0],
  ["CC(=O)c1c(C)c2cnc(Nc3ccc(N4CCNCC4)cn3)nc2n(C2CCCC2)c1=O", "%Inh", 0],
  ["COc1ccc(Nc2nccc(-c3ccc(NC(=O)c4cc5cc(F)ccc5[nH]4)cc3)n2)cc1", "%Inh", 0],
  ["COc1ccc(Nc2nccc(N3CCC(NC(=O)c4cc5ccccc5s4)C3)n2)cc1 (stereo not drawn)", "%Inh", 5],
  ["Cc1nccc(-c2c(-c3ccc(F)cc3)ncn2CCCN2CCOCC2)n1.Cl", "%Inh", 9],
  ["FC(F)(F)c1ccccc1-c1cc(-c2c[nH]nc2-c2ccccn2)ccn1", "%Inh", 0],
  ["Cc1c(Cn2c(C)c(C)n3c(=O)cc(N4CCOCC4)nc23)cccc1C(F)(F)F", "%Inh", 9],
  ["Cc1ccc(NC(=O)Nc2ccccc2F)cc1-c1ccc(C(=O)Nc2ccncc2)cc1", "%Inh", 8],
  ["CNc1cc(-c2ccc3c(N)n[nH]c3c2)nc(N)n1", "%Inh", 36],
  ["COc1cccc(CNC(=O)NC2CCN(c3ccnc(Nc4ccc(F)cc4)n3)C2)c1 (stereo not drawn)", "%Inh", 19],
  ["CC(=O)c1cccc(NC(=O)NC2CCN(c3ccnc(Nc4ccc(F)cc4)n3)C2)c1 (stereo not drawn)", "%Inh", 2],
  ["Cc1cnc(N)c(/C=C/c2cncc(C(=O)NCCc3ccc(Cl)cc3Cl)c2)c1.Cl", "%Inh", 0],
  ["COc1ccc(CSc2nnc(-c3ccc4c(c3)CCO4)o2)cc1", "%Inh", 0],
  ["CCn1c(-c2c(N)noc2C)nc2cnccc21", "%Inh", 18],
  ["Cc1ccc(-c2nc(Nc3ccncc3)c3ccccc3n2)s1", "%Inh", 12]
]}

---

system: QSK; conditions: concentration: 1 μM, replicates: in singlicate; n = 1
# %Inh per entry
endpoint-name: %Inh (%)

{"columns": ["compound", "endpoint-name", "result"],
 "data": [
  ["COc1cccc(CNC(=O)NC2CCN(c3ccnc(Nc4ccc(F)cc4)n3)C2)c1 (stereo not drawn) [GSK1379723]", "%Inh", 2],
  ["CS(=O)(=O)CCNCc1nc(-c2ccc3ncnc(Nc4ccc(OCc5ccccc5)c(Cl)c4)c3c2)cs1.Cl [GW582764]", "%Inh", 0],
  ["COc1cccc(NC(=O)Nc2ccc(C)c(-c3ccc(C(=O)Nc4ccncc4)cc3)c2)c1 [GSK1398474]", "%Inh", 0],
  ["CCn1c(-c2c(N)noc2C)nc2cnccc21 [SB-737856]", "%Inh", 20],
  ["O=C1NC(=O)C(c2ccc(Cl)cc2)=C1Nc1cccc(Cl)c1 [SB-317651]", "%Inh", 1],
  ["O=C(Nc1n[nH]c2cc(-c3ccsc3)ccc12)C1CC1 [SB-732932]", "%Inh", 26],
  ["Cl.Cl.Cl.N#Cc1ccc(CCNc2nccc(-c3cccc(CN4CCNCC4)c3)n2)cc1 [GSK2137462]", "%Inh", 9],
  ["Cn1cncc1C(=O)NC1CCN(c2ccnc(Nc3ccc(F)cc3)n2)C1 (stereo not drawn) [GSK1379717]", "%Inh", 0],
  ["COc1nccc(-c2c(-c3ccc(F)cc3)ncn2CCCN2CCOCC2)n1 [SB-282852]", "%Inh", 0]
]}
